# target-system: Mitogen-activated protein kinase kinase kinase kinase 1 (Homo sapiens)
# protocol-summary: Inhibition of full-length unphosphorylated HPK1 (unknown origin) by scintillation proximity assay
parameter-measured: pIC50
Scale: pIC50 equals -log10([C]), with [C] in mol/L.

QUERY: Fill in the blank: the reported pIC50 of Cc1[nH]c2nnc(C)n2c(=O)c1CC(=O)Nc1ncc(Cc2ccccc2F)s1 is ____.
RESULT: 5.92

====

# target-system: Mitogen-activated protein kinase kinase kinase kinase 1 (Homo sapiens, UniProt Q92918)
# Sequence (Q92918 whole entry, the tested form may be a part): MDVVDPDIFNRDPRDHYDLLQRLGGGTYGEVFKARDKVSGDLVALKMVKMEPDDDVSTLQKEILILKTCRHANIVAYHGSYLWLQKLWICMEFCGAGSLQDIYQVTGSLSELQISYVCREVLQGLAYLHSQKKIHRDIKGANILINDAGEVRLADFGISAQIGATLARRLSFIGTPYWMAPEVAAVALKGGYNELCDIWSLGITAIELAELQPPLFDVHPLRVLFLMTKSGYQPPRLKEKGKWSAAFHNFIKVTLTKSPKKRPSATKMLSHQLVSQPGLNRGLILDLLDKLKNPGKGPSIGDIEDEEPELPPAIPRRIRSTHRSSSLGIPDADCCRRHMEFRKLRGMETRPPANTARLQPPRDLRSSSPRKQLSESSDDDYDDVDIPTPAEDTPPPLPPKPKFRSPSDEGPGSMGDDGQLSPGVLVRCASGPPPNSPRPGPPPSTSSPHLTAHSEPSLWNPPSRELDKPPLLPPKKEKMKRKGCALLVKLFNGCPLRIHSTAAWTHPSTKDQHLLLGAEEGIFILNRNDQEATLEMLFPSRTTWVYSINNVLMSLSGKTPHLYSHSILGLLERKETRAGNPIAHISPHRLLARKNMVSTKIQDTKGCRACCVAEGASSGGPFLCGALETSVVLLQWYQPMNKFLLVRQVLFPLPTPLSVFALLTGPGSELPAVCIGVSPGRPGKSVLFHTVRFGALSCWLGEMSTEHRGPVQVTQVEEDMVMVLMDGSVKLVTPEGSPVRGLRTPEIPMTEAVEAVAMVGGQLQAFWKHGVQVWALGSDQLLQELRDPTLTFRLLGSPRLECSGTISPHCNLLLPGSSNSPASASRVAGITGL
# protocol-summary: Inhibition of HPK1 (1 to 346 residues) (unknown origin) assessed as inhibition constant by Lanthascreen binding assay
pKi: −log10 of the molar value.
parameter-measured: pKi

Completed entries (count: 3):
1) COc1cccc(F)c1-c1cc2c(NCc3ccc(N4CCN(C)CC4)cc3)n[nH]c2cn1: 6.30
2) COc1cccc(F)c1-c1ncc2[nH]nc(-c3ccc(N4CCN(C)CC4)cc3)c2n1: ≥ 7.00
3) COc1cccc(F)c1-c1ccc2[nH]nc(-c3ccc(N4CCN(C)CC4)cc3)c2n1: ≥ 7.00

QUERY: // returns reported pKi for input COc1cccc(F)c1-n1cc2c(-c3ccc(N4CCN(C)CC4)cc3)n[nH]c2cc1=O
RESULT: ≥ 7.00

QUERY: Next compound up: Cc1cc(CNCCO)cc(F)c1-c1cc2c(-c3cnn(C)c3)n[nH]c2cn1
RESULT: ≥ 7.00

QUERY: Entry to check: COc1cccc(F)c1-c1cc2c(C(=O)Nc3ccc(N4CCN(C)CC4)cc3)n[nH]c2cn1
RESULT: ≥ 7.00

====

# target-system: Mitogen-activated protein kinase kinase kinase kinase 1 (Homo sapiens, UniProt Q92918)
# protocol-summary: Inhibition of HPK1 (unknown origin) by ELISA
parameter-measured: IC50 (nM)
Form entry: value (nM) — number only.

QUERY: // IC50 lookup, key: CN1CCN(c2ccc3nc(-c4c(N)c5sccc5[nH]c4=O)[nH]c3c2)CC1
RESULT: 50

====

# protocol-summary: Cytotoxicity against HEK293 cells assessed as cell growth inhibition
# Type: toxicity, cell-based
# test-conditions: human
parameter-measured: IC50 (nM)
Report the value in nM with no unit label.

QUERY: Entry under review: Cc1cc(-c2cnc3[nH]cc(-c4ccc(C(=O)N(C)C[C@H](C)O)cc4)c3n2)cc2c1CCN(CCN1CCOCC1)C2 . Reported IC50?
RESULT: 1420

====

# target-system: Mitogen-activated protein kinase kinase kinase kinase 1 (Homo sapiens, UniProt Q92918)
# protocol-summary: Inhibition of HPK1 (unknown origin) in presence of ATP
IC50 overview

Here's what some known entries look like.
1) COc1cc2c(cc1Nc1ncc(Cl)c(Nc3ccccc3S(=O)(=O)C(C)C)n1)CN(C)CC2: ≤ 5 nM
2) COc1cc2c(cc1Nc1ncc(Cl)c(Nc3ccccc3P(C)(C)=O)n1)CN(C)CC2: < 5 nM

Proceed to the following item.
QUERY: Name the recorded IC50 for COc1cc2c(cc1Nc1ncc(Br)c(Nc3ccccc3P(C)(C)=O)n1)CN(C)CC2 .
RESULT: ≤ 5 nM
